These measurements were taken from patent US9861680B2.

# Target of assay: PD-1-Ig binding to PD-L1-TVMV-His (PD-L1-His) (Homo sapiens)
# Construct: hPDL1(19-239)-TVMV-His; made in house; host or cells: HEK293T
# Sequence (Q9NZQ7 with tags, fused parts or gaps): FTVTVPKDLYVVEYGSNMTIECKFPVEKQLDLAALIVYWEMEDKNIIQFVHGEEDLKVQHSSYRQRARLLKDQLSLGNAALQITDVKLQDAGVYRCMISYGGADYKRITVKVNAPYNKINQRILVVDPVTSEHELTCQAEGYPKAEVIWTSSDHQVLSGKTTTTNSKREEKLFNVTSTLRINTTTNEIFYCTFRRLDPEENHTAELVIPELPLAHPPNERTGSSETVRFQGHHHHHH
# Test protocol: PD-1/PD-L1 Homogenous Time-Resolved Fluorescence (HTRF) binding assay
# Condition notes: range class; PD-L1-His 10 nM, PD-1-Ig 20 nM
Bridge positions count the residues as written; N and C are the ends. Square brackets hold non-standard residues; d marks the D form. Peptide text beside a SMILES is read from it. NMeNle = CCCC[C@H](NC)C(=O)O; NMeA = CN[C@@H](C)C(=O)O; Dab = NCC[C@H](N)C(=O)O; NEtG = CCNCC(=O)O
Exercise: for every item that follows, state its recorded IC50.

Asked: Tell me IC50 of CCCC[C@H]1C(=O)N(C)[C@@H](CCCC)C(=O)N[C@@H](CC(C)C)C(=O)N[C@H](C(=O)NCC(N)=O)CSCC(=O)N[C@@H](Cc2ccc(O)cc2)C(=O)N(CC(=O)O)CC(=O)N[C@@H](CC(N)=O)C(=O)N2CCC[C@H]2C(=O)N[C@@H](Cc2cnc[nH]2)C(=O)N[C@@H](CCC(=O)O)C(=O)N2C[C@H](O)C[C@H]2C(=O)N[C@@H](Cc2c[nH]c3ccccc23)C(=O)N[C@@H](CCN)C(=O)N[C@@H](Cc2csc3ccccc23)C(=O)N1C when tested on PD-1-Ig binding to PD-L1-TVMV-His (PD-L1-His) (Homo sapiens).
Given back: 10 to 99 nM

Asked: // output IC50; input CCCC[C@H]1C(=O)N(C)[C@@H](CCCC)C(=O)N[C@@H](CC(C)C)C(=O)N[C@H](C(=O)NCC(N)=O)CSCC(=O)N[C@@H](Cc2ccc(O)cc2)C(=O)N(C)[C@@H](C)C(=O)N[C@@H](CC(N)=O)C(=O)N2CCC[C@H]2C(=O)N[C@@H](Cc2cnc[nH]2)C(=O)N[C@@H](CCC(=O)O)C(=O)N(CC)CC(=O)N[C@@H](Cc2c[nH]c3ccccc23)C(=O)N[C@@H](CCN)C(=O)N[C@@H](Cc2c[nH]c3ccccc23)C(=O)N1C [Example 3003] ({CH2CO}-Y[NMeA]NPHE[NEtG]W[Dab]W[NMeNle][NMeNle]LCG-NH2; thioether N-14) ; system PD-1-Ig binding to PD-L1-TVMV-His (PD-L1-His) (Homo sapiens)
Given back: 10 to 99 nM
